measured-target: c-fms (Homo sapiens, UniProt P07333)
Sequence (P07333 539-972 limits assumed): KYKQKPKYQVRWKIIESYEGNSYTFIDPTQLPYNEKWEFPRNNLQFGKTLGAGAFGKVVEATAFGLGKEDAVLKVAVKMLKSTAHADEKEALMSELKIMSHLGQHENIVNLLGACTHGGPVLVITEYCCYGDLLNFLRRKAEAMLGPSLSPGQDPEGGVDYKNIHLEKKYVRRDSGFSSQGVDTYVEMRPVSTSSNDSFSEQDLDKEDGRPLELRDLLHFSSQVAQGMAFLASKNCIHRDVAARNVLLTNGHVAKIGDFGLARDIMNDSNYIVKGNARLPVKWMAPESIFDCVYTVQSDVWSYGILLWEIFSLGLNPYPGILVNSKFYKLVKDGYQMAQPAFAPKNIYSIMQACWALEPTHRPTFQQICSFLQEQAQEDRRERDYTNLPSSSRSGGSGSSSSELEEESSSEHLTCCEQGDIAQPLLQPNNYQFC
pIC50: −log10 of the molar value.
experimental-endpoint: pIC50

Q: Could you tell me which pIC50 is on file for O=C1Nc2ccc3ncccc3c2/C1=C/Nc1ccc(CCO)cc1 ?
Result: < 7.00

----------
measured-target: Lck (Homo sapiens, UniProt P06239)
Sequence (P06239 whole entry): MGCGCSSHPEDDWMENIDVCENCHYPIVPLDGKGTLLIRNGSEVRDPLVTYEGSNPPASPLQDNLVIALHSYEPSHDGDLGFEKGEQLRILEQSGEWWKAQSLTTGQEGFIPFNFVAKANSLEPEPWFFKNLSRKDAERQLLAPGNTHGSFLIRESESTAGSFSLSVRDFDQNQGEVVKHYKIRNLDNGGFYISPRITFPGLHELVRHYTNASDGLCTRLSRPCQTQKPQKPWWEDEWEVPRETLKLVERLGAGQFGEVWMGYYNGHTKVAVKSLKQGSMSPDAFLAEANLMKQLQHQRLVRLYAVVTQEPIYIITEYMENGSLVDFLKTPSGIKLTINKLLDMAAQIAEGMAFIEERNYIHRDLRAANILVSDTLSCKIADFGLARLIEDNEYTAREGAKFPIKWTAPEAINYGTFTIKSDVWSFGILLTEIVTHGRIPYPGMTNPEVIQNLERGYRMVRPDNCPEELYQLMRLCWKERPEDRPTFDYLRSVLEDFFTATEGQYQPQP
pIC50: −log10 of the molar value.
experimental-endpoint: pIC50

Q: Could you tell me which pIC50 is on file for NS(=O)(=O)c1ccc(NN=C2C(=O)Nc3ccc(-c4cnco4)cc32)cc1 ?
Result: < 7.00

----------
Test system: MDA-MB468 (human breast carcinoma cell line)
experimental-protocol: MTT assay, MDA MB468
Assay type: cell-based
measurement-context: 72 h
experimental-endpoint: IC50

Q: Could you tell me which IC50 is on file for O=C1Nc2ccc3ncsc3c2C1=CNc1ccc(S(=O)(=O)NCc2ccncc2)cc1 [Example 104] ?
Result: 1.1 to 5 µM

Values were extracted from patent US7105529B2.
